system: P. falciparum HB3 in RBCs, SYBR Green DNA fluorescence; test: growth inhibition of P. falciparum HB3, dose response, HB3 strain, red blood cells, SYBR Green, cherry-picked (AID 652041);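 note: parasites exposed to compound for 72 hours before the DNA read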
Listed next: entries and their corresponding AC35.

INSERT INTO assay_data (compound, measured_on, measured_property, reported_measurement) VALUES
  ('O=c1c(CO)cc(CO)cc(CO)c1O', 'P. falciparum HB3 in RBCs, SYBR Green DNA fluorescence', 'AC35', '20.8 µM'),
  ('CCC(Oc1ccc(Br)cc1Cl)C(=O)Nc1nnc(C2CC2)s1 (stereo unspecified)', 'P. falciparum HB3 in RBCs, SYBR Green DNA fluorescence', 'AC35', '33.3 µM'),
  ('Oc1c(CN2CCCC2)cc(COCc2ccccc2)c2cccnc12', 'P. falciparum HB3 in RBCs, SYBR Green DNA fluorescence', 'AC35', '7.31 µM');

Asked: Would you kindly share the measured AC35 for "Fc1ccc(CCNC(=S)Nc2ccc(F)c(Cl)c2)cc1" ?
Given back: 14.1 µM

Asked: Which AC35 is listed for "O=CC1=C(c2ccccc2)Oc2ccccc2O1" ?
Given back: 7.46 µM

Asked: Request the reported AC35 associated with "COc1ccc(/C=N/Nc2cc(C)nc(-n3nc(C)cc3C)n2)cc1"
Given back: 1.54 µM
